B1: TRIM15 (parent)
chain: QSSGKILLCPLCQEEEQAETPMAP

variants of: B1; assay: protein stability index of a GFP-peptide fusion (GPS, HEK-293T) (PSI 1-6); higher = more stable; settings: c terminus: a fixed tail appended;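 further: lentivirally expressed fusions sorted by FACS into six bins by GFP to DsRed ratio, PSI derived from sequencing read proportions per bin multiplied by bin number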
reported.endpoint: protein stability index
Response field accepts a number only; no unit should be typed.

Consider the reported protein stability index for these variants:
variant_code=M22Y experimental_value=3.08
variant_code=P21D experimental_value=3.93

# next variant below
Lookup: What does the record list as protein stability index for `A23L` ?
Found: 2.97
